Just for reference, patent US20240166635A1 is where these values come from.

biological target: CDK4/Cyclin D1 (Homo sapiens (Human)); test: CDK4/CyclinD1 kinase inhibitory activity (Caliper mobility shift)
Sequence (P11802 whole entry): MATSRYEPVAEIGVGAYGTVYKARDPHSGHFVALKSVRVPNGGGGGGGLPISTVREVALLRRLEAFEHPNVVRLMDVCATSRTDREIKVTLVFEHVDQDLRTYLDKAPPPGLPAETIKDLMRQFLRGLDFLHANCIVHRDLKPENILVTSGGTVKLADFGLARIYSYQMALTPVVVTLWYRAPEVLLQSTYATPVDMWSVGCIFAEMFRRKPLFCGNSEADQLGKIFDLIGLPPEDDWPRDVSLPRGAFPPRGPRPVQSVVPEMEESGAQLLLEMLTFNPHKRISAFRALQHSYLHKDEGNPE
Sequence (P24385 whole entry partner): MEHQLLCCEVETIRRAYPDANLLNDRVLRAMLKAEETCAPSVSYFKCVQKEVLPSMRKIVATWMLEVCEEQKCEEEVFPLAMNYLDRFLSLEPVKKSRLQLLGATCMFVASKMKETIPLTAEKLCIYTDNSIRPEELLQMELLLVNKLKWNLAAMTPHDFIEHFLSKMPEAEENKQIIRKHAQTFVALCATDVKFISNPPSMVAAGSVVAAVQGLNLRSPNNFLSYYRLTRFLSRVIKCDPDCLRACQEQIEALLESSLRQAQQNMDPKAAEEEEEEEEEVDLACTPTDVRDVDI
Value Type: IC50

A selection of reference data follows.
| Compound | IC50 |
| --- | --- |
| N#Cc1cnc(Nc2ccc(S(N)(=O)=O)cc2)nc1OC1CCCC1O (single isomer, unassigned) [Example 20b] | 100 to 1000 nM |
| [2H]C([2H])([2H])NS(=O)(=O)c1ccc(Nc2ncc(C#N)c(OC3CCCOCC3)n2)cc1 (single isomer, unassigned) [Example 33a] | 10 to 100 nM |
| [2H]C([2H])([2H])NS(=O)(=O)c1ccc(Nc2ncc(Br)c(OC3CCCC3O)n2)cc1 (single isomer, unassigned) [Example 143a] | 100 to 1000 nM |
| CC1CCCC(O)C1Oc1nc(Nc2ccc(S(N)(=O)=O)cc2)ncc1C(F)(F)F (single isomer, unassigned) [Example 112a] | 100 to 1000 nM |
| N#Cc1cnc(Nc2ccc(S(=O)(=O)NC3CC(F)C3)cc2)nc1OC1CCCCC1O (single isomer, unassigned) [Example 31a] | 10 to 100 nM |
| C[C@]1(O)CCC[C@H]1Oc1nc(NC2CCN(S(C)(=O)=O)CC2)ncc1C#N (relative stereo) [Example 3b] | < 10 nM |
| CC(C)NS(=O)(=O)c1ccc(Nc2ncc(C#N)c(OC3CCCC3(C)O)n2)cc1 (single isomer, unassigned) [Example 35a] | 10 to 100 nM |
| CNS(=O)(=O)c1ccc(Nc2ncc(C(F)(F)F)c(OC3CCOCCC3O)n2)cc1 (single isomer, unassigned) [Example 102d] | ≥ 1000 nM |
| CC1(O)CCCC1Oc1nc(NC2CCN(S(=O)(=O)CC3CCOC3)CC2)ncc1C#N (single isomer, unassigned) [Example 40b] | 10 to 100 nM |
| CNc1cccc(-c2nc(Nc3ccc(S(N)(=O)=O)cc3)ncc2C#N)c1 [Example 97] | 100 to 1000 nM |

List the reported IC50 of each compound below.
1. CN1CCC(NS(=O)(=O)c2ccc(Nc3ncc(Cl)c(OC4CCCC4O)n3)cc2)CC1 (single isomer, unassigned) [Example 139b]
2. CC1(COc2nc(Nc3ccc(S(N)(=O)=O)cc3)ncc2C#N)CCCC1 [Example 12]
3. [2H]C([2H])([2H])NS(=O)(=O)c1ccc(Nc2ncc(C(F)(F)F)c(OC3COCCC3O)n2)cc1 (single isomer, unassigned) [Example 117a]

Out:
100 to 1000 nM
< 10 nM
100 to 1000 nM

====

biological target: CDK7/CyclinH/MAT1 (Homo sapiens (Human), UniProt P50613); assay: CDK7/CyclinH/MAT1 kinase inhibitory activity (Caliper mobility shift)
Sequence (P50613 whole entry): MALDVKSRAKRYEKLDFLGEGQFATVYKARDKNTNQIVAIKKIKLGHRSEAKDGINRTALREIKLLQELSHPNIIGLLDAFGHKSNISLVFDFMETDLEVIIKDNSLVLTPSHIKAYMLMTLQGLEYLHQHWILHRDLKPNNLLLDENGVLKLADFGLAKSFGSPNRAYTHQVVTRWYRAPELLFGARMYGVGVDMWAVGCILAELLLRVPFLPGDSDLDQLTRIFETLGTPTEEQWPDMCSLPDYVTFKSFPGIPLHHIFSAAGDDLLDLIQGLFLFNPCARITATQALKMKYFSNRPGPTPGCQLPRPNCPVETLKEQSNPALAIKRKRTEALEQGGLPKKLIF
Sequence (P51946 whole entry partner): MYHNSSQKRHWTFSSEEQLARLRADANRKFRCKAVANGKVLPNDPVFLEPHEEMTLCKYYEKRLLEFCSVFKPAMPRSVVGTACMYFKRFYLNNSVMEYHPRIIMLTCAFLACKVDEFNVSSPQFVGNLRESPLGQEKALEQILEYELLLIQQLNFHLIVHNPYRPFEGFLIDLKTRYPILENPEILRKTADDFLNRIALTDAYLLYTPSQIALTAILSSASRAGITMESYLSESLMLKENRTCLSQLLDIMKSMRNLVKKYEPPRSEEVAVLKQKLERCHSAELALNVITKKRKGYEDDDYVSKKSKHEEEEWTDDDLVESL
Sequence (P51948 whole entry partner): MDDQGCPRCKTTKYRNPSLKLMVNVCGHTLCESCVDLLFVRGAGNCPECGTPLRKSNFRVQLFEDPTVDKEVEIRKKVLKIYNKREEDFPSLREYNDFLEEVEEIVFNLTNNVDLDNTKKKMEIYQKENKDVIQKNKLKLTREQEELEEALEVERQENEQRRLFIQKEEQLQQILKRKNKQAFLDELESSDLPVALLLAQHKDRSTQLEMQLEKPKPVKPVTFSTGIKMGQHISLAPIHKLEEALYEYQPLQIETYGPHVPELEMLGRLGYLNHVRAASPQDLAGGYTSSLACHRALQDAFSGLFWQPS
pIC50: −log10 of the molar value.
Value Type: pIC50

A selection of reference data follows.
| Molecule | Target Or System | pIC50 |
| --- | --- | --- |
| CC1(O)CCCC1Oc1nc(NC2CCN(S(=O)(=O)CC(F)(F)F)CC2)ncc1C#N (single isomer, unassigned) [Example 43b] | CDK7/CyclinH/MAT1 (Homo sapiens (Human), UniProt P50613) | ≤ 6.00 |
| [2H]C([2H])([2H])NS(=O)(=O)c1ccc(Nc2ncc(C#N)c(OC3CCCOCC3)n2)cc1 (single isomer, unassigned) [Example 33a] | CDK7/CyclinH/MAT1 (Homo sapiens (Human), UniProt P50613) | ≤ 6.00 |
| [2H]C([2H])([2H])NS(=O)(=O)c1ccc(Nc2ncc(C(F)(F)F)c(OC3CCOCCC3O)n2)cc1 (single isomer, unassigned) [Example 102a] | CDK7/CyclinH/MAT1 (Homo sapiens (Human), UniProt P50613) | ≤ 6.00 |

List the reported pIC50 of each molecule below.
1. CC1(O)CCCC1Oc1nc(Nc2ccc(S(N)(=O)=O)cc2)ncc1C1CC1 (single isomer, unassigned) [Example 154a]
2. [2H]C([2H])([2H])NS(=O)(=O)c1ccc(Nc2ncc(C(=C)F)c(O[C@@H]3CCC[C@@H]3O)n2)cc1 (single isomer, unassigned) [Example 135a]
3. Cn1cnc(S(=O)(=O)N2CCC(Nc3ncc(C#N)c(OC4CCCC4(C)O)n3)CC2)c1 (single isomer, unassigned) [Example 50b]
4. CC(C)CS(=O)(=O)N1CCC(Nc2ncc(C#N)c(OC3CCCC3(C)O)n2)CC1 (single isomer, unassigned) [Example 39a]
5. [2H]C([2H])([2H])NS(=O)(=O)c1ccc(Nc2ncc(Br)c(OC3CCCC3O)n2)cc1 (single isomer, unassigned) [Example 143a]

Out:
["7.00 to 8.00", "6.00 to 7.00", "≤ 6.00", "6.00 to 7.00", "6.00 to 7.00"]
